value.type: log10(MIC) (log10 of the value in µg/mL)
Use the decimal logarithm of MIC (µg/mL).

Observed log10(MIC), C. tropicalis KA205, Nc1nc2c(-c3ccc([N+](=O)[O-])cc3)nn(-c3ccccc3)c2s1 [Compound 2] : 0.00

Summary line: O=[N+]([O-])c1ccc(-c2nn(-c3ccccc3)c3sc(NC(c4ccccc4O)P(=O)(Oc4ccccc4)Oc4ccccc4)nc23)cc1 (centres unmarked) [Compound 5a] , C. tropicalis KA205, reported log10(MIC) = -0.90

Form field log10(MIC) for item CCOP(=O)(OCC)C(Nc1nc2c(-c3ccc([N+](=O)[O-])cc3)nn(-c3ccccc3)c2s1)c1ccc(Cl)cc1 (centres unmarked) [Compound 3] on C. tropicalis KA205: 0.00

Value (log10(MIC), C. tropicalis KA205) for record OC(Cn1cncn1)(Cn1cncn1)c1ccc(F)cc1F [FCA, fluconazole, reference compound] = 0.60

Item O=[N+]([O-])c1ccc(-c2nn(-c3ccccc3)c3sc(NC(c4ccc[nH]4)P(=O)(Oc4ccccc4)Oc4ccccc4)nc23)cc1 (centres unmarked) [Compound 6b] was tested on C. tropicalis KA205; the reported log10(MIC) is -0.30

# log10(MIC) measured on C. tropicalis KA205 for item CCOP(=O)(OCC)C(Nc1nc2c(-c3ccc([N+](=O)[O-])cc3)nn(-c3ccccc3)c2s1)c1ccc(N(C)C)cc1 (centres unmarked) [Compound 4] = 0.30

Item CN(C)c1ccc(C(Nc2nc3c(-c4ccc([N+](=O)[O-])cc4)nn(-c4ccccc4)c3s2)P(=O)(Oc2ccccc2)Oc2ccccc2)cc1 (centres unmarked) [Compound 5b] was tested on C. tropicalis KA205; the reported log10(MIC) is -0.30

Reported C. tropicalis KA205 log10(MIC) for item O=[N+]([O-])c1ccc(-c2nn(-c3ccccc3)c3sc(NC(c4cccs4)P(=O)(Oc4ccccc4)Oc4ccccc4)nc23)cc1 (centres unmarked) [Compound 6a] was -0.30

----------
tested on: S. aureus KA112; test: Agar well-diffusion, inhibition zone; assay type: cell-based, Staphylococcus aureus; details: Staphylococcus aureus, KA112, read-out: Average diameter of inhibition zone (ZI)
value.type: zone of inhibition at 10 µM (mm)
Report as a plain number; the unit mm is understood.

// sample Nc1nc2c(-c3ccc([N+](=O)[O-])cc3)nn(-c3ccccc3)c2s1 , its zone of inhibition at 10 µM was 17

# zone of inhibition at 10 µM (molecule: CCOP(=O)(OCC)C(Nc1nc2c(-c3ccc([N+](=O)[O-])cc3)nn(-c3ccccc3)c2s1)c1ccc(Cl)cc1 (stereo not drawn) ) is 18

Measured zone of inhibition at 10 µM, O=[N+]([O-])c1ccc(-c2nn(-c3ccccc3)c3sc(NC(c4cccs4)P(=O)(Oc4ccccc4)Oc4ccccc4)nc23)cc1 (stereo not drawn) : 19

GET /value?item= O=[N+]([O-])c1ccc(-c2nn(-c3ccccc3)c3sc(NC(c4ccc[nH]4)P(=O)(Oc4ccccc4)Oc4ccccc4)nc23)cc1 (stereo not drawn) &field=zone of inhibition at 10 µM returns 23

The molecule C[C@@H]1O[C@@H]1P(=O)(O)O [FO, fosfomycin, reference compound] showed zone of inhibition at 10 µM equal to 18

Lab note: CCOP(=O)(OCC)C(Nc1nc2c(-c3ccc([N+](=O)[O-])cc3)nn(-c3ccccc3)c2s1)c1ccc(N(C)C)cc1 (stereo not drawn) gave zone of inhibition at 10 µM of 17

----------
tested on: P. mirabilis KA320
value.type: MIC (µg/mL)
Just the number please, in µg/mL, no unit attached.

Briefly, MIC measured for O=[N+]([O-])c1ccc(-c2nn(-c3ccccc3)c3sc(NC(c4cccs4)P(=O)(Oc4ccccc4)Oc4ccccc4)nc23)cc1 (centres unmarked) [Compound 6a] : 2

Entry under test: Nc1nc2c(-c3ccc([N+](=O)[O-])cc3)nn(-c3ccccc3)c2s1 [Compound 2] . Its MIC was 8

Record CCOP(=O)(OCC)C(Nc1nc2c(-c3ccc([N+](=O)[O-])cc3)nn(-c3ccccc3)c2s1)c1ccc(Cl)cc1 (centres unmarked) [Compound 3] . Reported MIC: 2

# MIC (compound: O=[N+]([O-])c1ccc(-c2nn(-c3ccccc3)c3sc(NC(c4ccccc4O)P(=O)(Oc4ccccc4)Oc4ccccc4)nc23)cc1 (centres unmarked) [Compound 5a] ) is 0.125

The recorded MIC for entry C[C@@H]1O[C@@H]1P(=O)(O)O [FO, fosfomycin, reference compound] equals 16

----------
Reported values: MIC for P. mirabilis KA320, one per item.
Report the value in µg/mL with no unit label.

Entry O=[N+]([O-])c1ccc(-c2nn(-c3ccccc3)c3sc(NC(c4ccc[nH]4)P(=O)(Oc4ccccc4)Oc4ccccc4)nc23)cc1 (stereo not drawn) ; MIC = 0.25

// MIC value for CCOP(=O)(OCC)C(Nc1nc2c(-c3ccc([N+](=O)[O-])cc3)nn(-c3ccccc3)c2s1)c1ccc(N(C)C)cc1 (stereo not drawn) : 16

The compound identified as CN(C)c1ccc(C(Nc2nc3c(-c4ccc([N+](=O)[O-])cc4)nn(-c4ccccc4)c3s2)P(=O)(Oc2ccccc2)Oc2ccccc2)cc1 (stereo not drawn) registered its MIC at 0.25

----------
test system: E. coli KA780; test: Broth microdilution MIC and MBC; assay type: cell-based; conditions: Escherichia coli, KA780, read-out: MBC/MIC
Field: MBC. Provide a value for each of the molecules that follow.
Numeric answer only, unit µg/mL assumed.

Lab note: Nc1nc2c(-c3ccc([N+](=O)[O-])cc3)nn(-c3ccccc3)c2s1 gave MBC of 0.5

Memo: O=[N+]([O-])c1ccc(-c2nn(-c3ccccc3)c3sc(NC(c4ccccc4O)P(=O)(Oc4ccccc4)Oc4ccccc4)nc23)cc1 (centres unmarked) , reported MBC: 0.5

Input CN(C)c1ccc(C(Nc2nc3c(-c4ccc([N+](=O)[O-])cc4)nn(-c4ccccc4)c3s2)P(=O)(Oc2ccccc2)Oc2ccccc2)cc1 (centres unmarked) . Output MBC: 0.5

So, C[C@@H]1O[C@@H]1P(=O)(O)O [FO, fosfomycin, reference compound] ? Its MBC was 1

Item: O=[N+]([O-])c1ccc(-c2nn(-c3ccccc3)c3sc(NC(c4cccs4)P(=O)(Oc4ccccc4)Oc4ccccc4)nc23)cc1 (centres unmarked) | MBC: 0.5

Notebook: O=[N+]([O-])c1ccc(-c2nn(-c3ccccc3)c3sc(NC(c4ccc[nH]4)P(=O)(Oc4ccccc4)Oc4ccccc4)nc23)cc1 (centres unmarked) , MBC read as 0.5

Entry CCOP(=O)(OCC)C(Nc1nc2c(-c3ccc([N+](=O)[O-])cc3)nn(-c3ccccc3)c2s1)c1ccc(N(C)C)cc1 (centres unmarked) , MBC reported as 1

// recorded MBC for CCOP(=O)(OCC)C(Nc1nc2c(-c3ccc([N+](=O)[O-])cc3)nn(-c3ccccc3)c2s1)c1ccc(Cl)cc1 (centres unmarked) : 1

----------
Please respond with reported pIC50 for every item in the list.
target: E. coli MurA enzyme (Escherichia coli, UniProt P0A749); test: MurA enzyme inhibition assay; format: biochemical; settings: IC50, preincubation 0 min
Sequence (P0A749 whole entry): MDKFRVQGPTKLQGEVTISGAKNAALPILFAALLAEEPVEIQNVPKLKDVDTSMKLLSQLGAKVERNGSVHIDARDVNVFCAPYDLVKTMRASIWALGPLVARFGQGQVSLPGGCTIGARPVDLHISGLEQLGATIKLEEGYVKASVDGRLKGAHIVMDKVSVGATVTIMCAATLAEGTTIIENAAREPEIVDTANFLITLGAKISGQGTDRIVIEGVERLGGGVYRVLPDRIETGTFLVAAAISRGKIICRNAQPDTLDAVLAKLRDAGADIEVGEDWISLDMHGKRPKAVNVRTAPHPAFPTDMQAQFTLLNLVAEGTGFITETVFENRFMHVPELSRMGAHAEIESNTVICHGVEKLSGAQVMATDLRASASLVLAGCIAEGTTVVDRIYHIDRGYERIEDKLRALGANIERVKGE
Just the number, please; pIC50 means minus log10 of the concentration in mol/L.

Bench note, E. coli MurA enzyme (Escherichia coli, UniProt P0A749): entry C[C@@H]1O[C@@H]1P(=O)(O)O [FO, fosfomycin, reference compound] , its pIC50 = 4.28

Known value: E. coli MurA enzyme (Escherichia coli, UniProt P0A749) pIC50 of the compound O=[N+]([O-])c1ccc(-c2nn(-c3ccccc3)c3sc(NC(c4ccccc4O)P(=O)(Oc4ccccc4)Oc4ccccc4)nc23)cc1 (stereo not drawn) equals 4.39

Value (pIC50, E. coli MurA enzyme (Escherichia coli, UniProt P0A749)) for record CN(C)c1ccc(C(Nc2nc3c(-c4ccc([N+](=O)[O-])cc4)nn(-c4ccccc4)c3s2)P(=O)(Oc2ccccc2)Oc2ccccc2)cc1 (stereo not drawn) = 4.35

Just for reference, paper PMC10685179 is where these values come from.
